# System: CD2F1 mice, L1210 leukemia ip, survival T/C
# assay.remarks: NCI In Vivo Anticancer Drug Screen. Data for tumor model L1210 Leukemia (intraperitoneal) in CD2F1 (CDF1) mice
# setup.conditions: endpoint: mean survival time; dose: 100.0 mg/kg/injection; schedule: Q01DX001 (ip); vehicle: other
Inconclusive results and toxic doses are left out. Rule for the calls: active = survival T/C of 150% or more; inactive = T/C below 125% in these data.
Field 'call' accepts active, inactive

Assay outcome for CN(C)[C@@H]1C(=O)C(C(=O)NCNC(Cc2ccc(N(CCCl)CCCl)cc2)C(=O)O)=C(O)[C@@]2(O)C(=O)C3=C(O)c4c(O)cccc4[C@@](C)(O)[C@H]3C[C@@H]12 (some centres undefined) : what was it? active

Assay outcome for O=[N+]([O-])c1ccc(Sc2ccc(Cl)cc2)cc1 : what was it? inactive

Assay outcome for CC(CCOP(=O)(N(C)C)N(CCCl)CCCl)OCc1ccccc1 (centres undefined) : what was it? inactive

Assay outcome for CCOC(=O)C(C(=S)NC)=S(C)C : what was it? inactive
